Source listed as paper PMC9767310.

- TGT: αVβ3 (Homo sapiens, UniProt P05106+P06756)
- Sequence (P06756 31-889 limits assumed): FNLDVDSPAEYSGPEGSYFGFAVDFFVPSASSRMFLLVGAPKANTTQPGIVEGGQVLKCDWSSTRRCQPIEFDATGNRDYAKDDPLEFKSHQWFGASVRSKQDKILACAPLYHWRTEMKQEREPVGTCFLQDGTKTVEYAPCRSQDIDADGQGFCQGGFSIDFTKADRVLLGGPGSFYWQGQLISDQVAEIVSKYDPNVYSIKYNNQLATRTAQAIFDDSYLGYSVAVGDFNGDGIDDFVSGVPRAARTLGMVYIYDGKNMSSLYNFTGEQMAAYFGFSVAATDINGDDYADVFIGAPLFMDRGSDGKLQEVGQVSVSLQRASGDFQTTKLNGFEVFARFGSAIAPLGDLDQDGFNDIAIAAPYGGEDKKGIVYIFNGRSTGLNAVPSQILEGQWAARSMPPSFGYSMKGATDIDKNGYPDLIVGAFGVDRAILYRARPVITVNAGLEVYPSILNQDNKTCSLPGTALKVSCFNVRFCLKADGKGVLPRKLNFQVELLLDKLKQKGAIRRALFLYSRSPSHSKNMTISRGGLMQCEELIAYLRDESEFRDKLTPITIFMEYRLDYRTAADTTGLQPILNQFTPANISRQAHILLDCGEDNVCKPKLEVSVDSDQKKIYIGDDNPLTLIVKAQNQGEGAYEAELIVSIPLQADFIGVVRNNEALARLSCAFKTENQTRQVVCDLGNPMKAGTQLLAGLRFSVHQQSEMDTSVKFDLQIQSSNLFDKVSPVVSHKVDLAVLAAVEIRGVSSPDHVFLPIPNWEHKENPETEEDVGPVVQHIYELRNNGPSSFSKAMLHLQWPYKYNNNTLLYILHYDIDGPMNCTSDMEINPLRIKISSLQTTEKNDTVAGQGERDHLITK
- Sequence (P06756 891-1048 partner limits assumed): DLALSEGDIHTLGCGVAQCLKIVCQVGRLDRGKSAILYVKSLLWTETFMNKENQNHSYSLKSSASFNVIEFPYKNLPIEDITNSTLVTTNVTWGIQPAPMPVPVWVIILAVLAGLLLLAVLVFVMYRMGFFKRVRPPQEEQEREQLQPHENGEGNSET
- Sequence (P05106 27-788): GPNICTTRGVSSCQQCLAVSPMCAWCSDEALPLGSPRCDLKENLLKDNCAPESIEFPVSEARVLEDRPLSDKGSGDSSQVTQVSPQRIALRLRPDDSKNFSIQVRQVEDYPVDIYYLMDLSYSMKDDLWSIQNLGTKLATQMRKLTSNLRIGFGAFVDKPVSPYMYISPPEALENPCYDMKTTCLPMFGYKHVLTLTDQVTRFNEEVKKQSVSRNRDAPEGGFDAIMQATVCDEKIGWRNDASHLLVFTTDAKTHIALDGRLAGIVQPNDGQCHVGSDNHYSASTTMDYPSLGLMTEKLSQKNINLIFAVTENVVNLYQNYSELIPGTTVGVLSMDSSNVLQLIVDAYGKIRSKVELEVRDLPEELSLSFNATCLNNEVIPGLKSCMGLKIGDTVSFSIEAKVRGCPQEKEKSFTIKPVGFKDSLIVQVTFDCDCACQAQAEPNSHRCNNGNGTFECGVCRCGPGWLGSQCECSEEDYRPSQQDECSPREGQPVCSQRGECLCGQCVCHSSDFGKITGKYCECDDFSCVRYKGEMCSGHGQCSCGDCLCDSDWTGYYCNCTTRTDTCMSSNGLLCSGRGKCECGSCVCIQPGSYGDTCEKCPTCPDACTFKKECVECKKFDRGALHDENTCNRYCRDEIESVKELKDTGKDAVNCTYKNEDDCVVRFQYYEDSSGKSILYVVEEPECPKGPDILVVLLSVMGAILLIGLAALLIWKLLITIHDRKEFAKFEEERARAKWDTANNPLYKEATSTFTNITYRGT
- RUN DESCRIPTION: Monoclonal antibody AP5 binding assay
- SETTINGS: EC50 (half-maximal exposure of the AP5 epitope), MSR03 dihydrochloride prepared in 1 M NaCl; n = 3
pEC50: −log10 of the molar value.

{"MOL": "Cl.Cl.O=C(NCCCc1ccc2c(n1)NCCC2)Nc1ccnc2ccccc12", "pEC50": "< 3.52"}

====

- TGT: αVβ3 (Homo sapiens, UniProt P05106+P06756)
- RUN DESCRIPTION: αVβ3-mediated cell adhesion to fibrinogen

{"MOLECULE": "Cl.Cl.O=C(NCCCc1ccc2c(n1)NCCC2)Nc1ccnc2ccccc12", "IC50 [nM]": 1600}
{"MOLECULE": "OCC[C@@H]1CN(c2ccnc3ccccc23)CCN1Cc1ccc2c(n1)NCCC2 [MSR01R]", "IC50 [nM]": 1300}
{"MOLECULE": "c1ccc2c(N3CCN(Cc4ccc5c(n4)NCCC5)CC3)ccnc2c1", "IC50 [nM]": 2000}
{"MOLECULE": "OCC[C@H]1CN(c2ccnc3ccccc23)CCN1Cc1ccc2c(n1)NCCC2 [MSR01S]", "IC50 [nM]": 1000}
